# experimentDescription: gradient 5% acetonitrile 3 min, to 50% in 2 min, to 85% in 15 min, held 3 min, 100 µL/min
# settings: column: Zorbax Extend-C18 2.1 x 50 mm; eluents: water / acetonitrile, 0.1% formic acid
observationType: RP-LC retention time (s)
Give bare numbers, in s.

Reference set, count: 8
Determine its reported RP-LC retention time: CN(C)C(=O)c1ccc2c(c1)N(CC(=O)Nc1cccnc1)C(=O)CO2
572

Determine its reported RP-LC retention time: O=C(NCc1ccccc1)c1cc2c(=O)n(Cc3ccccc3)ccc2s1
896

Determine its reported RP-LC retention time: Cn1nc(N2CCC(NC(=O)CCn3cccn3)C2)ccc1=O (centres undefined)
582

Determine its reported RP-LC retention time: O=C(c1ccncc1)N1CCc2c([nH]c3ccccc23)C1c1ccc(Cl)cc1 (centres undefined)
1000

Determine its reported RP-LC retention time: O=C(Cn1c(=O)c2cc(C3CC3)nn2c2ncccc21)Nc1cccc(F)c1
778

Determine its reported RP-LC retention time: CCC(=O)N1CCc2cc(N3CC(C(=O)NC4CC4)CC3=O)ccc21 (centres undefined)
620

Determine its reported RP-LC retention time: Cc1ccccc1NC(=O)N1CCCC(Cn2cnc3cccnc32)C1 (centres undefined)
659

Determine its reported RP-LC retention time: CCc1ccccc1NC(=O)C1CCc2sc(C(=O)N(C)C)cc2C1 (centres undefined)
738

Answer for every listed entry: what is its RP-LC retention time? The entries follow.
1. O=C(NCc1ccccc1F)c1ccc2c(c1)nc1n2CCN(C2CCCCC2)C1=O
2. Cc1ccc(NS(=O)(=O)c2cc(-c3[nH]ncc3C(=O)N3CCCC3)oc2C)c(C)c1
3. CCOCCCNS(=O)(=O)c1cc(-c2cc(C)[nH]n2)sc1C
4. COc1ccc(-c2nc3cnccn3c2Nc2cc(OC)ccc2OC)cc1

[788, 746, 720, 831]
